Data origin, for the record: patent EP2402356A2

Property: EC50; scope: individual compounds
System: Recombin ant provirus from the patient 6021959
Experimental Details: microbe, parasite or virus in culture
Assay type: cell-based, HIV-1
Study Conditions: recombinant provirus from patient 6021959; RT resistance mutations M41 L, E44D, T69D, L741, K103N, V108I, V118I, M184V, M230L, T215Y, G333E; read-out: EC50
Kindly provide the numeric value in nM only, without the unit symbol.

>>> measured_result("Cc1cn([C@H]2C[C@H](N=[N+]=[N-])[C@@H](COP(=O)(O)O)O2)c(=O)[nH]c1=O [AZTM P, reference compound]")
1710

Could you now look at the following compound, please?
## Task // map Cc1cn([C@H]2C[C@H](F)[C@@H](COP(=O)(O)O)O2)c(=O)[nH]c1=O [FLT MP, reference compound] to recorded EC50 (system: Recombin ant provirus from the patient 6021959)
## Result 30
